Collected EC50 values appear next to each entry.
System: human CD34+ cells
assayProcedure: Expansion of human CD34+ cells (EC50, CD34+CD45RA- cell count)
Assay type: cell-based
conditionInfo: Homo sapiens, concentration that results in a 50% increase in CD34+CD45RA- cell count compared to vehicle cultures (DMSO); read-out: Biological data (EC50)*

compound="COC(=O)c1ccc2c(c1)[nH]c1ncnc(NCCCN3CCCC3)c12 [Cmpd 9]" result="100 to 250 nM"
compound="COC(=O)c1cnc2c(c1)[nH]c1nc(Cc3cccc(F)c3)nc(NCCCN(C)CCCN)c12 [Cmpd 71]" result="250 to 500 nM"
compound="COC(=O)c1ccc2c(c1)[nH]c1nc(Cc3cccc(Br)c3)nc(NCCCN3CCCCC3)c12 [Cmpd 35]" result="< 100 nM"
compound="COC(=O)c1ccc2c(c1)[nH]c1nc(Cc3ccccc3)nc(N(C)CCCN3CCCCC3)c12 [Cmpd 3]" result="< 100 nM"
compound="COC(=O)c1ccc2c(c1)[nH]c1nc(Cc3ccccc3)nc(NCC(O)CN3CCCCC3)c12 (centres unmarked) [Cmpd 51]" result="< 100 nM"

Entry COC(=O)c1ccc2c(c1)[nH]c1nc(Cc3ccccc3C)nc(NCCCN3CCCCC3)c12 [Cmpd 36] : reported EC50 = ?
< 100 nM

What EC50 value was documented for this compound, COC(=O)c1cnc2c(c1)[nH]c1nc(Cc3ccccc3)nc(N(C)CCCN3CCCCC3)c12 [Cmpd 65] ?
< 100 nM

Could you share which EC50 value was measured for COC(=O)c1ccc2c(c1)[nH]c1nc(Cc3ccc4ccccc4c3)nc(NCCCN3CCCCC3)c12 [Cmpd 27] ?
100 to 250 nM

###

Tested on: human CD34+ cells
assayProcedure: Expansion of human CD34+ cells (EC50, CD34+CD45RA- cell count)
Type: cell-based
conditionInfo: Homo sapiens, concentration that results in a 50% increase in CD34+CD45RA- cell count compared to vehicle cultures (DMSO); read-out: Biological data (EC50)*
pEC50: −log10 of the molar value.
propertyName: pEC50

molecule=COC(=O)c1ccc2c(c1)[nH]c1ncnc(NCCN(C)C)c12 result="6.60 to 7.00"
molecule=CN(CCCNC(=O)CNC(=O)CNC(=O)CN)CCCNc1nc(Cc2ccccc2)nc2[nH]c3cc(-c4nnn(C)n4)ccc3c12 result="6.30 to 6.60"
molecule=COC(=O)c1ccc2c(c1)[nH]c1nc(Cc3ccncc3)nc(NCCCN3CCCCC3)c12 result="6.30 to 6.60"

Which pEC50 reading was recorded for the molecule COC(=O)c1cnc2c(c1)[nH]c1nc(Cc3ccccc3)nc(NCCCN3CCCCC3)c12 ?
6.30 to 6.60

###

System: human CD34+ cells
assayProcedure: Expansion of human CD34+ cells (EC50, CD34+CD45RA- cell count)
Assay type: cell-based
conditionInfo: Homo sapiens, concentration that results in a 50% increase in CD34+CD45RA- cell count compared to vehicle cultures (DMSO); read-out: Biological data (EC50)*
The entries below are paired with their reported EC50.

Illustrative cases are given below, each with its answer.
molecule=N#Cc1ccc2c(c1)[nH]c1nc(Cc3ccccc3)nc(NCCCN3CCCCC3)c12 result="250 to 500 nM"
molecule="COC(=O)c1ccc2c(c1)[nH]c1nc(C(OC)c3ccccc3)nc(NCCCN3CCCCC3)c12 (stereo not shown)" result="< 100 nM"

Reported EC50 for COC(=O)c1ccc2c(c1)[nH]c1nc(C(C)c3ccccc3)nc(NCCCN3CCCCC3)c12 (stereo not shown) : what is it?
< 100 nM

Can you share its EC50? I mean this molecule: COC(=O)c1ccc2c(c1)[nH]c1cc(Cc3ccsc3)nc(NCCN(C)CCN)c12
250 to 500 nM

Query: EC50; subject: CCN(CCCN1CCCCC1)c1nc(Cc2ccccc2)nc2[nH]c3cc(C(=O)OC)ccc3c12
> 1000 nM

For the molecule COC(=O)c1cnc2c(c1)[nH]c1nc(Cc3ccsc3)nc(SCCCN3CCCCC3)c12 , what EC50 is on record?
500 to 1000 nM

Would you mind telling me what EC50 value was observed for COC(=O)c1cnc2c(c1)[nH]c1nc(Cc3ccccc3C)nc(NCCCN3CCCCC3)c12 ?
250 to 500 nM

Using the record for C#CCOC(CNc1nc(Cc2ccccc2)nc2[nH]c3cc(C(=O)OC)ccc3c12)CN1CCCCC1 (stereo not shown) , report its EC50.
< 100 nM

Record request: EC50 value, item COC(=O)c1ccc2c(c1)[nH]c1cc(Cc3ccccc3)nc(NCCN3CCCC3)c12
< 100 nM

Fill in the blank: the reported EC50 of COC(=O)c1ccc2c(c1)[nH]c1nc(Cc3cc(Br)cc(I)c3)nc(NCCCN3CCCCC3)c12 is ____.
< 100 nM

Fill in: EC50 of COC(=O)c1ccc2c(c1)[nH]c1nc(Cc3ccc(C)cc3)nc(NCCCN3CCCCC3)c12 is ___
< 100 nM

Data request, read-out EC50, for COC(=O)c1ccc2c(c1)[nH]c1cc(Cc3ccsc3)nc(N[C@H]3CC[C@H](N)CC3)c12
100 to 250 nM

Look up EC50 for this molecule: COC(=O)c1ccc2c(c1)[nH]c1nc(Cc3ccccc3)nc(NCCCN(C)CCCNC(=O)CCCC[C@@H]3SC[C@@H]4NC(=O)N[C@@H]43)c12
250 to 500 nM

EC50 lookup needed for COC(=O)c1ccc2c(c1)[nH]c1cc(Cc3ccccc3)nc(NCCCN3CCCCC3)c12 , thanks.
< 100 nM

Given COC(=O)c1ccc2c(c1)[nH]c1nc(Cc3ccccc3)nc(NCCCN(C)CCOCCOCCO)c12 , state its recorded EC50.
< 100 nM

Please look up its EC50: CN(C)C1CCC(Nc2nc(Cc3ccccc3)nc3[nH]c4cc(-c5nnn(C)n5)ccc4c23)CC1 (stereo not shown)
< 100 nM

###

Tested on: human CD34+ cells
assayProcedure: Expansion of human CD34+ cells (EC50, CD34+CD45RA- cell count)
Assay type: cell-based
conditionInfo: Homo sapiens, concentration that results in a 50% increase in CD34+CD45RA- cell count compared to vehicle cultures (DMSO); read-out: Biological data (EC50)*
pEC50: −log10 of the molar value.
This section presents compounds with their documented pEC50 values.

compound=COC(=O)c1ccc2c(c1)[nH]c1nc(Cc3ccccc3)nc(SCCCN3CCCCC3)c12 propertyname=pEC50 result="6.30 to 6.60"
compound=COC(=O)c1ccc2c(c1)[nH]c1nc(Cc3ccccc3)nc(OCCCN3CCCCC3)c12 propertyname=pEC50 result="6.00 to 6.30"
compound=CNC(=O)c1ccc2c(c1)[nH]c1nc(Cc3ccccc3)nc(NCCCN3CCCCC3)c12 propertyname=pEC50 result="< 6.00"
compound=COC(=O)c1ccc2c(c1)[nH]c1ncnc(NC3CCNCC3)c12 propertyname=pEC50 result="6.00 to 6.30"
compound="COC(=O)c1ccc2c(c1)[nH]c1ncnc(NCC(O)CN3CCCCC3)c12 (centres unmarked)" propertyname=pEC50 result="6.30 to 6.60"
compound=Cn1nnc(-c2ccc3c(c2)[nH]c2nc(Cc4ccccc4)nc(NCCCN4CCCCC4)c23)n1 propertyname=pEC50 result="> 7.00"

Consider the compound COC(=O)c1ccc2c(c1)[nH]c1nc(C)nc(NCCCN3CCCCC3)c12 and give its measured pEC50.
< 6.00

Request the reported pEC50 associated with COC(=O)c1ccc2c(c1)[nH]c1nc(Cc3ccccc3)nc(NCCCN3CCCCC3)c12
> 7.00

###

System: human CD34+ cells
assayProcedure: Expansion of human CD34+ cells (EC50, CD34+CD45RA- cell count)
Format: cell-based
conditionInfo: concentration that results in a 50% increase in CD34+CD45RA- cell count compared to vehicle cultures (DMSO); read-out: Biological data (EC50)*
pEC50: −log10 of the molar value.
Listed here: items and their measured pEC50.

compound="COC(=O)c1ccc2c(c1)[nH]c1ncnc(NC3CCC(N)CC3)c12 (centres unmarked) [Cmpd 44]" result="6.60 to 7.00"

Moving on to another compound below.
I have this compound here, COC(=O)c1ccc2c(c1)[nH]c1ncnc(NC3CCC(N)CC3)c12 (centres unmarked) [Cmpd 45] , and I need its recorded pEC50.
6.30 to 6.60

###

Test system: human CD34+ cells
assayProcedure: Expansion of human CD34+ cells (EC50, CD34+CD45RA- cell count)
Type: cell-based
conditionInfo: Homo sapiens, concentration that results in a 50% increase in CD34+CD45RA- cell count compared to vehicle cultures (DMSO); read-out: Biological data (EC50)*
Reported EC50 by item:

Here are 3 compounds together with their reported answers.
compound=COC(=O)c1cnc2c(c1)[nH]c1nc(Cc3ccccc3C)nc(NCCCN3CCCC3)c12 measurementtarget="human CD34+ cells" result="250 to 500 nM"
compound=COC(=O)c1ccc2c(c1)[nH]c1cc(Cc3ccsc3)nc(NCCN(C)CCNC(=O)OC(C)(C)C)c12 measurementtarget="human CD34+ cells" result="> 1000 nM"
compound=COC(=O)c1ccc2c(c1)[nH]c1ncnc(NCCCN3CCCCC3)c12 measurementtarget="human CD34+ cells" result="250 to 500 nM"

For the compound shown here, CNCCCN(C)c1nc(Cc2cccnc2)cc2[nH]c3cc(C(=O)OC)ccc3c12 , give the reported EC50.
> 1000 nM

// query EC50 value for entry COC(=O)c1cnc2c(c1)[nH]c1nc(Cc3ccccc3)nc(N3CCC(N(C)C)CC3)c12
100 to 250 nM

Looking for the measured EC50 of CCN(CC)CCN(CC)c1nc(Cc2ccccc2)nc2[nH]c3cc(C(=O)OC)cnc3c12 , can you help?
250 to 500 nM

Form field: reported EC50 of CCCOC(=O)c1ccc2c(c1)[nH]c1ncnc(NCCCN3CCCCC3)c12
> 1000 nM

// lookup EC50 for Cn1nnc(-c2ccc3c(c2)[nH]c2ncnc(NCCCN4CCCCC4)c23)n1
100 to 250 nM

Item COC(=O)c1ccc2c(c1)[nH]c1cc(Cc3cccc(O)c3)nc(NCCCCN3CCCC3)c12 has what recorded EC50?
< 100 nM

Which EC50 value is on record for COC(=O)c1cnc2c(c1)[nH]c1nc(Cc3ccsc3)nc(NCCCN3CCCCC3)c12 ?
250 to 500 nM

Query: EC50; subject: COC(=O)c1ccc2c(c1)[nH]c1ncnc(N3CCC(N4CCCCC4)CC3)c12
100 to 250 nM

Consider the compound shown here: CCN(CC)CCNc1nc(Cc2cccc(OC)c2)nc2[nH]c3cc(C(=O)OC)cnc3c12 What is its recorded EC50?
500 to 1000 nM

So what's the measured EC50 for this one? COC(=O)c1ccc2c(c1)[nH]c1cc(Cc3ccsc3)nc(NCCCN3CCCCC3)c12
100 to 250 nM

Item under review: COC(=O)c1ccc2c(c1)[nH]c1cc(Cc3cccc(OC)c3)nc(NCCCCN3CCCC3)c12 . Reported EC50?
< 100 nM

Item CNCCCNc1nc(Cc2cccc(F)c2)nc2[nH]c3cc(C(=O)OC)cnc3c12 has what recorded EC50?
> 1000 nM

Reported EC50 for COC(=O)c1ccc2c(c1)[nH]c1ncnc(NCCC3CCNCC3)c12 : what is it?
250 to 500 nM

Need EC50, item COC(=O)c1ccc2c(c1)[nH]c1ncnc(NCCN3CCCCC3)c12
250 to 500 nM

Need EC50 of COC(=O)c1ccc2c(c1)[nH]c1nc(Cc3cccc(C(=O)C(F)(F)F)c3)nc(NCCCN3CCCCC3)c12 , thanks.
< 100 nM
